Data origin, for the record: the domain aggregation screens of Martell et al. (2025)

test details: soluble fraction after stress (log2 fold change); higher = more stays soluble; pooled small domains, quantitative proteomics;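 further: 20 min heating vs room temperature control held 20 min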
experimental conditions: stress: 75 degC
# if value of soluble fraction (log2) reaches -1, tag Y; if it stays below, tag N

| seq string | class name |
| --- | --- |
| HMIINLGELLKMLEVNKYQDAMDALDSLIEEGGSLEKIESLHEIRQHTHAMNFREAERLLSILIESEGA | N |
| HMNPFLELTEREMDVLRLIAIGRNNQEIASELVISEKTVKTHITNIFSKLHFKDRTQAAAYAWQSGIVR | N |
| HMSSSYMVRITTSVLNVRKGPGTNYGITTKVKKGEVYTIVAEEKNGNTTWGKLKSGTGYISLGYTER | N |
| HMSRLLRTDAHLQYAAERGLPVTASAYTPVFAGAKQYTGRIESFDAQTIRFADGPAVERKAVARLEAE | Y |

### Prompt Hi team, for HMRPEKLVLKALRGAHGPLSAEEVAGRIEADGGAGLDVARVEHVLGQLERSGTVAALGGGKYLALR , is the recorded soluble fraction (log2) at or above -1?
### Response Y

### Prompt Hi team, for HMPFSLHGVNEGSRNDNAARIAGYLISKNLNLDFVRIFLHNWNRDNKPPLPQQEIDSVVDNVKKTHDRKN , is the recorded soluble fraction (log2) at or above -1?
### Response N

### Prompt Hi team, for HMETSVDEVYKKIQAYIEAEDKHKPLSDQKLAEQLQSDGLKVSRRTVAKYREKLNIASSSKRKR , is the recorded soluble fraction (log2) at or above -1?
### Response Y

### Prompt Hi team, for HMNSEELFLRRIAQELIDQHGKDLHRIIVVLPSNRSKVFLKKFLFEILGSAFLTPQLMLLPQFVKSIV , is the recorded soluble fraction (log2) at or above -1?
### Response Y
